This collection of values is drawn from the Immune Epitope Database (IEDB).

biological target: HLA-B*57:01; test: IEDB peptide-MHC binding, purified MHC/direct/fluorescence; filed as Kd, often an IC50 or EC50 that approximates it; bounds were set here for any values at or beyond the usual limits of such assays; conditions: source organism: Bacillus anthracis
pKd: −log10 of the molar value.
Parameter measured: pKd

Entry REFEAQNVP under HLA-B*57:01 had pKd of ≤ 4.70

* * *

target: HLA-A*01:01; assay: IEDB peptide-MHC binding, purified MHC/competitive/radioactivity; filed as Kd, often an IC50 or EC50 that approximates it; bounds were set here for any values at or beyond the usual limits of such assays; conditions: source organism: Dengue virus 1 Brazil/97-11/1997
Parameter measured: pKd
Give bare numbers, as −log10 of the molar value.

pKd recorded for this sequence, MTSRMLLNRF , is 4.91
